Provenance of the data: PubChem BioAssay AID1159580

# ASSAY DETAILS: chemical genetic growth profiling, strain panel (AID 1159580);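 also: tested at 20 µM; growth read once vehicle control cultures reached saturation at 30 °C; lower values mean less growth of the strain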
# CONDITION SET: S. cerevisiae deletion strains, growth OD, locus YJR075W, strain HOC1
The whole screen tested about 5,500 compounds, of which about 2,000 (36%) were called active. Roughly 18% stayed inconclusive and do not appear here. Rule as the data show it: active = normalized growth mostly below about 0.91 (no sharp cut-off); inconclusive = no clear call, values can overlap the other calls; inactive = mostly above about 0.92. The list shows a part of the results.
Hi! Could you answer with just one of these? Yes = active, No = inactive

The following molecules have reported results that may help.
{"MOLECULE": "Cc1onc(-c2ccc(Cl)cc2)c1-c1ccnn1C(=O)NC(C)C", "CLASS": "Yes"}
{"MOLECULE": "COC(=O)CSc1ncnc2c(C)csc12", "CLASS": "No"}
{"MOLECULE": "COC(=O)CSc1nc2ccc(Cl)cc2s1", "CLASS": "No"}
{"MOLECULE": "CCCCCCC(C)OC(=O)COc1ccc(Cl)cc1Cl (stereo not given)", "CLASS": "No"}
{"MOLECULE": "CN[C@@H]1C(O)[C@@H](O[C@@H]2[C@@H](O)[C@H](O[C@H]3OC(CN)=CC[C@H]3N)[C@@H](N)C[C@H]2N)OC[C@]1(C)O (stereo not given in full)", "CLASS": "No"}

// outcome(item) with item = CC(C)c1c(O)c(-c2cc3c(c(C(C)C)c2O)CCC2C(C)(C)CCC[C@]32C)cc2c1CCC1C(C)(C)CCC[C@]21C (stereo not given in full) No

// outcome(item) with item = COc1ccc2c(c1C(C)C)CCC1C(C)(C)C(=O)CCC21C (stereo not given) No

// outcome(item) with item = O=C1C=C2C(=CCOC2O)O1 (stereo not given) Yes

// outcome(item) with item = "CCOC(=O)c1sc(SC(C)C)c2c1CCCC2=O" No

// outcome(item) with item = CO[C@@]1(NC(=O)C(C(=O)O)c2ccc(O)cc2)C(=O)N2C(C(=O)O)=C(CSc3nnnn3C)CO[C@@H]21 (stereo not given in full) No

###

# ASSAY DETAILS: chemical genetic growth profiling, strain panel (AID 1159580);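 also: tested at 20 µM; growth read once vehicle control cultures reached saturation at 30 °C; lower values mean less growth of the strain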
# CONDITION SET: S. cerevisiae deletion strains, growth OD, locus YOR231W, strain MKK1, stronger effect = lower value
The whole screen tested about 5,500 compounds, of which about 2,000 (36%) were called active. Inconclusive results (about 18%) are left out. Some of the results follow.
Lab note - cut at 1 for normalized growth: Satisfied if strictly below, Not satisfied if not.

The following compounds have reported results that may help.
{"COMPOUND": "CC(=O)Oc1ccc2c(c1C(C)C)CCC1C(C)(C)CCC[C@]21C (some centres undefined)", "CLASS": "Satisfied"}
{"COMPOUND": "CN1C[C@H](C(=O)N[C@]2(C)O[C@@]3(O)[C@@H]4CCCN4C(=O)[C@H](Cc4ccccc4)N3C2=O)C[C@@H]2c3cccc4[nH]cc(c34)C[C@H]21", "CLASS": "Not satisfied"}
{"COMPOUND": "CC1(C)O[C@H]2CC(=O)OC[C@]23[C@H]2CC[C@@]4(C)[C@H](c5ccoc5)OC(=O)[C@H]5O[C@]54[C@]2(C)C(=O)C[C@@H]13", "CLASS": "Not satisfied"}
{"COMPOUND": "c1ccc(-c2nnc(-c3ccccn3)nc2-c2ccccc2)cc1", "CLASS": "Satisfied"}

Please indicate whether the reported normalized growth of "COc1ccc(/C=C2/C(=O)Nc3ccccc32)cc1" is strictly below 1. Satisfied

Please indicate whether the reported normalized growth of CC1(C)C2CC(=O)[C@]3(C)C(CC[C@@]4(C)[C@H](c5ccoc5)OC(=O)C5OC543)[C@@]2(C)[C@@H](O)C[C@H]1O (some centres undefined) is strictly below 1. Not satisfied

Please indicate whether the reported normalized growth of "O=C1Nc2ccccc2/C1=C\c1c(Cl)cccc1Cl" is strictly below 1. Satisfied

Please indicate whether the reported normalized growth of "O=C(O[C@@H]1Cc2c(O)cc(O)cc2O[C@@H]1c1cc(O)c(=O)c2c(O)c(O)cc([C@H]3Oc4cc(O)cc(O)c4C[C@H]3OC(=O)c3cc(O)c(O)c(O)c3)c2c1)c1cc(O)c(O)c(O)c1" is strictly below 1. Not satisfied

Please indicate whether the reported normalized growth of "FC(F)(F)c1cccc(NC(=S)NN=C2CCCCCC2)c1" is strictly below 1. Satisfied

Please indicate whether the reported normalized growth of "COc1c2ccoc2cc2oc(=O)ccc12" is strictly below 1. Satisfied

Please indicate whether the reported normalized growth of "O=C1Nc2ccccc2/C1=C/c1ccc(Oc2ccccc2)nc1" is strictly below 1. Satisfied
